Measured on: DNA polymerase theta (Homo sapiens)
Sequence (O75417 whole entry): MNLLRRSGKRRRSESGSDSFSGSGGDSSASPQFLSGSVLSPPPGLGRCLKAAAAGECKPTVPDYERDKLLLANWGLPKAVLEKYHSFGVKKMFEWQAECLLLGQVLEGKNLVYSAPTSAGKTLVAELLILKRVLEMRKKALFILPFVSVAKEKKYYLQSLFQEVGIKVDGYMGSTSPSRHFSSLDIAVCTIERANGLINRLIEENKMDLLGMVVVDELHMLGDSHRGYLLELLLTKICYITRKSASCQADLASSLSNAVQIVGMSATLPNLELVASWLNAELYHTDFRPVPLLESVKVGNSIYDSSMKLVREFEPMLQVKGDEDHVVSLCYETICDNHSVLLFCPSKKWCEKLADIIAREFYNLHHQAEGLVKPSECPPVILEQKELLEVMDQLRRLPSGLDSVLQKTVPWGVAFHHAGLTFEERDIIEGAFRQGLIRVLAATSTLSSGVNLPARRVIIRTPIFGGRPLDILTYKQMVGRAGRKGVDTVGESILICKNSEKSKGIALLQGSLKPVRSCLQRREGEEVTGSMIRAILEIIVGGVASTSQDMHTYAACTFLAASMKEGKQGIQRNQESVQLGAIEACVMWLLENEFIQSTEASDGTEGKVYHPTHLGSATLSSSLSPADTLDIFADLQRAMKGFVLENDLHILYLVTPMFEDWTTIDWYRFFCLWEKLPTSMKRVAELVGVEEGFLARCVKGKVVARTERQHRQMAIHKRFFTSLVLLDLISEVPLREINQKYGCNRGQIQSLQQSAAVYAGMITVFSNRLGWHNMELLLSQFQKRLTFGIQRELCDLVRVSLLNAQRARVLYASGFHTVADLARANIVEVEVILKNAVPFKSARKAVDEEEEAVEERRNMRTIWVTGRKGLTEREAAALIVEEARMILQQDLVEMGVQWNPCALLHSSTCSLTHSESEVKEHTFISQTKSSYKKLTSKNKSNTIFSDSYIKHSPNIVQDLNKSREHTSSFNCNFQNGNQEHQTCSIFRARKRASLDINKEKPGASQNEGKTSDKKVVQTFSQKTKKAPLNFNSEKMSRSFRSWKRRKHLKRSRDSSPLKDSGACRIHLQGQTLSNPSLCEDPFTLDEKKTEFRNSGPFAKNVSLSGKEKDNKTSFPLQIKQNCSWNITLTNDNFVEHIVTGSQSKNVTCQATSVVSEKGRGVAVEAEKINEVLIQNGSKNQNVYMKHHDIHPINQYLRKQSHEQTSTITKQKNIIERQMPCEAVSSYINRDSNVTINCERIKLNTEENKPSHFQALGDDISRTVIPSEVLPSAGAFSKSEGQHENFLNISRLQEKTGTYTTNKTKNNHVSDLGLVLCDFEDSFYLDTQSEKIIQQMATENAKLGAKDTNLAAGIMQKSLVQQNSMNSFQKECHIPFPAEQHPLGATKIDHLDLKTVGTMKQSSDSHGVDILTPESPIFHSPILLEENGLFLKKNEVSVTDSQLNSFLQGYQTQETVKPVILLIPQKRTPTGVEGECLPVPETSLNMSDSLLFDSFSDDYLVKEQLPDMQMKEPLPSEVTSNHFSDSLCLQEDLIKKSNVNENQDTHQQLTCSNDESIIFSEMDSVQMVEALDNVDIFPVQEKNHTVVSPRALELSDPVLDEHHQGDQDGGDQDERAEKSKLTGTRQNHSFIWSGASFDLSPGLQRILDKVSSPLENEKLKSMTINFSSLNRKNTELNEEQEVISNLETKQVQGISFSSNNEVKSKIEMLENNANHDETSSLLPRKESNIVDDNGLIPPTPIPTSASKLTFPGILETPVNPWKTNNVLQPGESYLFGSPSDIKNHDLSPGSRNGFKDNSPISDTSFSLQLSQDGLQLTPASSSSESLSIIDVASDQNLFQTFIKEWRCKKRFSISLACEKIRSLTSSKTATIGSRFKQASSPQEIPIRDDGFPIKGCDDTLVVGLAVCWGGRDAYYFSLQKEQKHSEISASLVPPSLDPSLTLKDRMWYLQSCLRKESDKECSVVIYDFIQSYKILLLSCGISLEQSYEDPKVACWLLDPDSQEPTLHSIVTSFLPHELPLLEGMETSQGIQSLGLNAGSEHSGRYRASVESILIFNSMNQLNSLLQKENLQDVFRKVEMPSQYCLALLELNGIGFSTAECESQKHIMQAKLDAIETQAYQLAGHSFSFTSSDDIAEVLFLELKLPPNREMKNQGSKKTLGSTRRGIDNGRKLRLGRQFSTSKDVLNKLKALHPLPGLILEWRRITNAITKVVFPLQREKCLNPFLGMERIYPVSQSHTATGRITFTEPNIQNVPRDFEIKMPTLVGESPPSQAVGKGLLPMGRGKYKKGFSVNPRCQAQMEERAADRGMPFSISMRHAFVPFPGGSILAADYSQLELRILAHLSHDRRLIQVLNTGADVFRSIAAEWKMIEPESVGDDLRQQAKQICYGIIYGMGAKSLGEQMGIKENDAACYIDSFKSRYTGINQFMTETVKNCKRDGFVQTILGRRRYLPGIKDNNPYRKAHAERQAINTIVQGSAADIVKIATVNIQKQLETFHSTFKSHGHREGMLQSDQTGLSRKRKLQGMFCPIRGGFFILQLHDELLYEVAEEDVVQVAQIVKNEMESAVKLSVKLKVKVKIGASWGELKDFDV
Endpoint: IC50

Requested read-out: IC50. Entry: COc1nnc(NC(=O)c2cnc(C)cc2-c2c(OC)ccc3scnc23)s1
> 10 µM
